TEST SUMMARY: viability of HCT116 without oncogenic beta-catenin – human colon tumor cells, pilot screen (AID 823);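 note: 0% = wells killed by 20 µM Hyamine and 100% = untreated DMSO cell wells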
CONDITION DETAILS: HCT116 beta-catenin knockout viability, CellTiter-Glo, 60 h; at 10 µM; hits give low values
Results filed as inconclusive are left out.
I'd be grateful if you could share measured viability for these entries.
Numbers only, in %.

The cases that follow already have their viability on record.
Just so you know, measured viability for CCN(CCNC(=O)Cn1c(=O)sc2ccccc21)c1ccccc1 came out at 92.2

Just so you know, measured viability for CCSc1nnc(Cc2cc(=O)[nH]c(=O)[nH]2)n1-c1ccc(F)cc1 came out at 104

Just so you know, measured viability for CCSC(C)CC1CC(=O)CC(=O)C1 (configuration not stated) came out at 94

// input: 6 molecules below; output: viability for each
1. CCOc1ccccc1NC(=O)CC1Nc2cc(C)c(C)cc2NC1=O (configuration not stated)
2. CCC(C)C(=O)Nc1nc2c(s1)C(=O)CC(C)(C)C2 (configuration not stated)
3. CCn1cc(S(=O)(=O)CC(=O)Nc2ccc3c(c2)OCCO3)c2ccccc21
4. COc1ccc(-n2ncc3c(N4CCC(C)CC4)ncnc32)cc1
5. O=S(=O)(NCC(O)COCc1ccco1)c1cccs1 (configuration not stated)
6. CC1CCN(S(=O)(=O)c2cccc(C(=O)Nc3ccccn3)c2)CC1

OUT:
1: 77.5; 2: 107; 3: 101; 4: 101; 5: 92.8; 6: 93.9

// input: 5 molecules below; output: viability for each
1. COc1ccc2oc(C(=O)CCC(=O)O)c(N)c2c1
2. Cc1ccc(C)c2[nH]c(=O)c(CCNC(=O)c3ccc(S(=O)(=O)N(C)C)cc3)cc12
3. COc1ccccc1NCN1C(=O)CCC1=O
4. CCc1nnc(NC(=O)COC(=O)CN2C(=O)c3ccccc3C2=O)s1
5. Cc1cc(N2CCOCC2)c2c(N)c(Br)cc(C)c2n1

OUT:
1. 93.3
2. 93.2
3. 102
4. 96.8
5. 80.1

// input: 8 molecules below; output: viability for each
1. Cc1ccc(OCC(=O)Nc2ccc(O)c(-c3nc4ccccc4o3)c2)cc1
2. CCOc1ccc(N(CC(=O)Nc2ccc(C)c(C)c2)S(=O)(=O)c2c(C)noc2C)cc1
3. O=C1CC(c2ccc(S(=O)(=O)NCc3ccccc3)cc2)CN1 (configuration not stated)
4. CN(C)c1nc(N)nc(-c2cccnc2)n1
5. COc1cc(NC(=O)c2nccnc2C(=O)O)cc(OC)c1
6. Cc1cc(C)cc(OCCCCCNCCO)c1
7. CCOC(=O)N1CCN(CC(O)c2ccc3cc[nH]c3c2)CC1 (configuration not stated)
8. CCOC(=O)N1CCC(NC(=O)c2ccc3c(c2)N(CC)CCS3)CC1

OUT:
1. 38.8
2. 27.4
3. 101
4. 102
5. 96.1
6. 87.6
7. 88.8
8. 98.2

// input: 7 molecules below; output: viability for each
1. O=C(Cn1nc(Cc2ccncc2)c2ccccc2c1=O)N1CCc2ccccc2C1
2. Cc1cc(OC2CCCCC2)nc(-c2ccccc2O)n1
3. CCn1cc(SCC(=O)NCC2CCCO2)c2ccccc21 (configuration not stated)
4. O=C(NC(C(=O)c1ccccc1)N1CCOCC1)c1ccccc1 (configuration not stated)
5. O=C(NC(=O)c1cccc(F)c1)OC[C@@H]1CCCN2CCCC[C@H]12
6. CCOC(=O)C(C(=O)OCC)C(C)C#CCN1CCCCC1 (configuration not stated)
7. CC(C)c1nnc(NC(=O)c2ccc(N3C(=O)CCC3=O)cc2)s1

OUT:
1: 103; 2: 87; 3: 94.8; 4: 99.3; 5: 99.4; 6: 93.9; 7: 101

----------
TEST SUMMARY: S. cerevisiae growth inhibition in restrictive medium, OD615, pilot screen, restrictive growth control, yeast lifespan reduction project (AID 706);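 note: modified DeaD lifespan yeast strain shifted to restrictive glucose medium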
CONDITION DETAILS: OD615, 48 h, at 10 µM, hits give high values
PROPERTY MEASURED: growth inhibition (%)
Numbers only, in %.

The cases that follow already have their growth inhibition on record.
Just so you know, measured growth inhibition for COc1ccc(Nc2oc(-c3ccccc3Cl)nc2C#N)cc1 came out at 0.98

Just so you know, measured growth inhibition for O=C(NC1CCCc2ccccc21)c1cccnc1 (configuration not stated) came out at -1.41

Just so you know, measured growth inhibition for COc1cccc2cc(C(=O)OC3CCN(C)CC3)c(=O)oc12 came out at -8.68

Just so you know, measured growth inhibition for CCOc1ccc(NC(=O)CN2C(=O)C3CCCN3C2=O)cc1 (configuration not stated) came out at -13.8

// input: 2 compounds below; output: growth inhibition for each
1. CN(C)CCCNC(=O)CCC1CCCCC1
2. CN1CCN(C2=C(Cl)C(=O)N(c3cccc(Cl)c3)C2=O)CC1

OUT:
-3.73
-5.5

// input: 4 compounds below; output: growth inhibition for each
1. Cc1cccc(C2CC(c3ccc(Cl)cc3)Nc3nc(N)nn32)c1 (configuration not stated)
2. CCOC(=O)c1[nH]c(C)c(C(=O)NC)c1C
3. CC(=O)Nc1ccc(N=Cc2ccc[nH]2)cc1
4. Cn1c(C(=O)NCCCN2CCCCCC2)cc2c(=O)n(C)c3ccccc3c21

OUT:
1. 23.9
2. -10.2
3. -5.65
4. 6.89

// input: 2 compounds below; output: growth inhibition for each
1. COc1ccccc1OCC(=O)N1CCN(c2ccccc2OC)CC1
2. COc1ccc(Nc2ncnc3c2cnn3-c2ccccc2)cc1OC

OUT:
[-2.73, -24.4]

----------
I'd be grateful if you could share measured growth inhibition for these entries.
TEST SUMMARY: S. cerevisiae growth inhibition in restrictive medium, OD615, pilot screen, restrictive growth control, yeast lifespan reduction project (AID 706);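 note: modified DeaD lifespan yeast strain shifted to restrictive glucose medium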
CONDITION DETAILS: OD615, 48 h, at 10 µM, hits give high values
Numbers only, in %.

Just so you know, measured growth inhibition for Cc1c(C#N)c2ncnc(-c3ccccc3)c2n1-c1ccccc1 came out at -15.3

Just so you know, measured growth inhibition for CCCCN(CCCC)CCn1cnc2c([nH]c3ccc(OC)cc32)c1=O came out at 3.9

Just so you know, measured growth inhibition for CCN(CC)CCCNC(=O)c1cc2c(=O)n(C)c3ccccc3c2n1C came out at -3.57

// input: 5 compounds below; output: growth inhibition for each
1. COc1ccc(S(=O)(=O)N2CCN(Cc3c[nH]c4ccccc34)CC2)cc1
2. Cc1cc2nc(SCCN3CCCC3)[nH]c2cc1C
3. O=C(Nc1ccc(F)cc1)C1CCC(N2C(=O)c3ccccc3C2=O)CC1 (configuration not stated)
4. Cc1cc(C)nc(NS(=O)(=O)c2ccc(Br)s2)c1
5. O=C1CC(c2cccnc2)c2cc3c(cc2N1)OCO3 (configuration not stated)

OUT:
[-14.2, -8.07, -20.7, -7.46, 1.1]

// input: 4 compounds below; output: growth inhibition for each
1. CCC1CCCCN1C(=O)CSc1nnc(-c2ccc(Cl)cc2)o1 (configuration not stated)
2. Cc1ccccc1NC(=O)C1CCCN(S(=O)(=O)c2cccc3cccnc23)C1 (configuration not stated)
3. COC(=O)COC(=O)c1ccc(O)cc1
4. O=C(COc1ccc2ccccc2c1)N1CCCC1

OUT:
-5.16
-16.6
4.2
-2.41

----------
TEST SUMMARY: S. cerevisiae growth inhibition in permissive medium (OD615), pilot counter-assay for S. cerevisiae lifespan shortening project, permissive growth control (AID 705)
CONDITION DETAILS: OD615, 24 h, at 10 µM, hits give high values
Active and inactive are the calls of the source.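 The calls were made as follows: active = growth inhibition above 25% in both replicates, a cutoff set 3 SD above the mean; inconclusive = above 25% in only one replicate; inactive = the rest.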
PROPERTY MEASURED: growth inhibition

The cases that follow already have their growth inhibition on record.
Just so you know, measured growth inhibition for Oc1c(C(c2cccs2)N2CCN(c3ccc(F)cc3)CC2)sc2ncnn12 (configuration not stated) came out at 0.78% (inactive)

Just so you know, measured growth inhibition for CN(C)C(C(=O)NC1CCCCC1)c1ccc(Cl)cc1 (configuration not stated) came out at -5.65% (inactive)

Just so you know, measured growth inhibition for CC1CCc2nc3ccc(S(=O)(=O)N4CCC(C(=O)NC5CCCC5)CC4)cc3c(C(=O)O)c2C1 (configuration not stated) came out at -0.78% (inactive)

Just so you know, measured growth inhibition for CCOc1cc(C2NC(=O)NC(O)(C(F)(F)F)C2C(=O)c2ccccc2)ccc1OC (configuration not stated) came out at -0.49% (inactive)

Just so you know, measured growth inhibition for Cc1c(C(=O)OCCOC(C)C)[nH]c2c1C(=O)CC(c1ccco1)C2 (configuration not stated) came out at -3.61% (inactive)

Just so you know, measured growth inhibition for O=C(Cc1cccs1)Nc1ccccc1NC(=O)Cc1cccs1 came out at -1.23% (inactive)

Just so you know, measured growth inhibition for O=C(Nc1ccc2snnc2c1)N1CCN(c2ccccc2)CC1 came out at -13.7% (inactive)

Just so you know, measured growth inhibition for O=C(Nc1cccc(F)c1)C1C2C=CC3(CN(CCCN4CCOCC4)C(=O)C13)O2 (configuration not stated) came out at 1.12% (inactive)

Just so you know, measured growth inhibition for CCOCC(=O)Nc1nc2c(s1)C(=O)CC(C)(C)C2 came out at -16.7% (inactive)

Just so you know, measured growth inhibition for CCSc1oc(-c2ccco2)nc1S(=O)(=O)c1ccccc1 came out at -16.4% (inactive)

// input: 2 molecules below; output: growth inhibition for each
1. O=C(O)c1cnn2c1NC(c1cccs1)CC2C(F)(F)F (configuration not stated)
2. CCOc1ccc(N(CC(=O)NC(C)CC)S(=O)(=O)c2c(C)noc2C)cc1 (configuration not stated)

OUT:
1. -22.6% (inactive)
2. -4.58% (inactive)
